measurement target: T1, Boi2, P39969
T1 sequence (P39969 32-116, looked up): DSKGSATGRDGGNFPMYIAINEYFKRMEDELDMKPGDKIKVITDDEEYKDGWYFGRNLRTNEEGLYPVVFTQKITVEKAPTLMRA
measurement description: SPOT array
condition summary: median of control spots 1161
recorded metric: SPOT intensity

Before answering, review these 6 worked examples.
NLKKRPPTAPQRKIS	0
KKIRLIFTYPSTVGR	13
PKMLPIPSKPTLFDL	0
FVLRYYILIPHEQWD	1
SKAKRPKFLLDLQIK	0
LKVTPGRRAPTISKI	2

a = NQARKPFLLPATELS
b = RLPAPPPPPRRGPAP
Identify the entry with the smaller SPOT intensity: a or b . When you have decided, please share the label of that item.
a
(a: 0, b: 1)

A = PSPSSSPPPIPKTAN
B = MFLISPPASPPPEFD
C = KNRKNLPTIPIRLSG
Put the entries in order of SPOT intensity, starting with the largest number. # the answer lists labels in the order requested
C, A, B
(C: 2, A: 1, B: 0)

a = PLRRTVMSLPGNHDI
b = AAHKTKPSIPPKKVE
Compare SPOT intensity: is it lower for a or for b ? The response must carry the label of the picked entry.
a
(a: 0, b: 1)

The values you see were collected from paper PMC2756588.
